- Stated Conditions: 303.15 K; 101 kPa; Liquid; Vibrating tube method
Value Type: mass density (kg/m3)
Provide only the numeric value, understood in kg/m3.

Compound | mass density [kg/m3]
CC(=O)[O-].C[NH+](C)C [trimethylammonium acetate] | 1049.87

Req: Would you kindly share the measured mass density for CCN(CC)CC.O=P(O)(O)O [triethylammonium dihydrogen phosphate] ?
Resp: 1124.68

Req: C[NH+](C)C.O=S(=O)([O-])O [trimethylammonium hydrogen sulfate] ?
Resp: 1463.56

Req: C[NH+](C)C.O=P([O-])(O)O [trimethylammonium dihydrogen phosphate] ?
Resp: 1350.62

Req: "CN1CCCC1=O" ?
Resp: 1023.74
